Data origin, for the record: ChEMBL document CHEMBL1132963

target: Tissue-type plasminogen activator (Homo sapiens) (UniProt P00750); assay: Tested for inhibition of Tissue type plasminogen activator
Sequence (P00750 36-562 limits assumed): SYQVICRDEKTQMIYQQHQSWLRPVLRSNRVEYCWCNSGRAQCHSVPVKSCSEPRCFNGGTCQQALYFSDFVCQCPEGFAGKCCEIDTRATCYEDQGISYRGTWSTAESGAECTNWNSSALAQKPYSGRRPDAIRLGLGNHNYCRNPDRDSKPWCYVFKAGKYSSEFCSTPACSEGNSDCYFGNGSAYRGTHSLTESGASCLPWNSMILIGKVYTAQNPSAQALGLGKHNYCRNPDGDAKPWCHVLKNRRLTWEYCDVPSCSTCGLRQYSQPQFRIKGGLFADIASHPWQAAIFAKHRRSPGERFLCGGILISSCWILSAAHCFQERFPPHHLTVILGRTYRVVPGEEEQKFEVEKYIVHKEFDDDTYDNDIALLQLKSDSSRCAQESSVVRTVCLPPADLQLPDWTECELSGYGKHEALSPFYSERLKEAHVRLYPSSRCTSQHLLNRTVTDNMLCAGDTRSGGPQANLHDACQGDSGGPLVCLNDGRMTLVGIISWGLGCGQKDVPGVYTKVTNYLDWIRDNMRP

compoundStructureString: COc1ccc(C(=O)Nc2ccccc2NC(=O)c2cccc(C(=N)N)c2)cc1
K ass: 20000 l M-1

compoundStructureString: CC(C)(C)c1ccc(C(=O)Nc2cc(C(=O)O)ccc2NC(=O)c2cccc(C(=N)N)c2)cc1
K ass: 4000 l M-1

compoundStructureString: CC(C)c1ccc(C(=O)Nc2cc(OCC(=O)O)ccc2NC(=O)c2cccc(C(=N)N)c2)cc1
K ass: 7000 l M-1

compoundStructureString: CC(C)(C)c1ccc(C(=O)Nc2ccccc2NC(=O)c2cccc(C(=N)N)c2)cc1
K ass: 11000 l M-1
